Reference source: the supplement of paper PMC9399229

Test system: Hep3B
assay.comment: relative cell viability (CellTiter-Glo), compound alone (fraction); higher = more viable cells (less growth inhibition)
condition.info: cabozantinib 0 µM; 4 days
Structures can show the parent of a compound that is named as a salt. In all, about 1,900 compounds were measured (“relative cell viability (CellTiter-Glo), compound alone”: median about 1, lowest 2% from about 0.16 on). This excerpt belongs to a sample that is enriched for the lowest values.
API: label(entry) gives Y if the entry's relative cell viability is strictly smaller than 1; on equality or larger values it gives N.

{"columns": ["molecule", "group.label"],
 "data": [
  ["Cc1ccc(NC(=O)C2(c3ccc4c(c3)OC(F)(F)O4)CC2)nc1-c1cccc(C(=O)O)c1", "Y"],
  ["O=C(Nc1ccccc1)c1ccccc1O [Salicylanilide]", "N"],
  ["O=C(Nc1cc(C(F)(F)F)cc(C(F)(F)F)c1)c1cc(Cl)ccc1O", "Y"],
  ["C1=N/C2=N/c3ccc(OCCN4CCCC4)c(c3)COC/C=C/COCc3cccc(c3)C(=C1)N2 [Pacritinib (SB1518)]", "Y"],
  ["CC(=O)N1CCN(CCOc2ccc(C3CCN(C4=Nn5c(nnc5C(F)(F)F)CC4)CC3)cc2)CC1", "N"],
  ["CNC(=O)[C@@H](c1ccccc1)N1CCc2cc(OC)c(OC)cc2[C@@H]1CCc1ccc(C(F)(F)F)cc1 [Almorexant HCl]", "N"]
]}

----------
System: Hep3B
assay.comment: relative cell viability (CellTiter-Glo), compound alone (fraction); higher = more viable cells (less growth inhibition)
condition.info: cabozantinib 0 µM; 4 days
The full ranking holds about 1,900 compounds; the median of “relative cell viability (CellTiter-Glo), compound alone” is about 1, and the lowest 2% start at about 0.16. The list comes from a sample in which the lowest values are over-represented; it also holds close analogues and randomly drawn compounds.
Criterion met if relative cell viability is below 1. Criterion not met if not; exact matches included in Criterion not met.

{"columns": ["structure", "group.label"],
 "data": [
  ["Cn1c(Nc2ccc(C(F)(F)F)cc2)nc2cc(Oc3ccnc(-c4ncc(C(F)(F)F)[nH]4)c3)ccc21", "Criterion met"],
  ["Cc1cc(NC(=O)c2cccc(NC(=O)/C=C/CN(C)C)c2)ccc1Nc1nccc(-c2cccnc2)n1", "Criterion met"],
  ["O=C(O)C1=CO[C@@H](O[C@@H]2O[C@H](CO)[C@@H](O)[C@H](O)[C@H]2O)[C@@H]2C(CO)=CC[C@H]12", "Criterion not met"],
  ["CO[C@H]1C[C@@H]2CC[C@@H](C)[C@@](O)(O2)C(=O)C(=O)N2CCCC[C@H]2C(=O)O[C@H]([C@H](C)C[C@@H]2CC[C@@H](OP(C)(C)=O)[C@H](OC)C2)CC(=O)[C@H](C)/C=C(\\C)[C@@H](O)[C@@H](OC)C(=O)[C@H](C)C[C@H](C)/C=C/C=C/C=C/1C", "Criterion not met"],
  ["Cc1cc(OCc2nnc(SC3CCCC3)n2-c2cccnc2)ccc1-c1ccc(S(C)(=O)=O)cc1", "Criterion not met"],
  ["COc1ccc(-c2ccc3ncc4c(c3c2)n(-c2ccc(N3CCNCC3)c(C(F)(F)F)c2)c(=O)n4C)cn1", "Criterion met"],
  ["COc1ccc(CCc2nc3cc(-c4c(C)noc4C)ccc3n2C[C@H](C)N2CCOCC2)cc1Cl", "Criterion met"]
]}

----------
System: Hep3B
assay.comment: relative cell viability (CellTiter-Glo), compound alone (fraction); higher = more viable cells (less growth inhibition)
condition.info: cabozantinib 0 µM; 4 days
Over roughly 1,900 compounds, “relative cell viability (CellTiter-Glo), compound alone” has its median near 1; the lowest 2% begin near 0.16. Many of the other results were omitted from the sample, so the lowest values are more common in it than they were.
measurement.name: relative cell viability

{"columns": ["compound", "measurement.name", "numeric.readout"],
 "data": [
  ["C/C(=N\\NC(=S)N1CCC1)c1ccccn1", "relative cell viability", 0.0813],
  ["COc1ccc(NS(=O)(=O)c2sc3ccc(Cl)cc3c2C)cc1N1CCNCC1", "relative cell viability", 0.974],
  ["CNc1ncnc2c1ncn2[C@@H]1O[C@H](CO)[C@@H](O)[C@H]1O", "relative cell viability", 1.15],
  ["CN1CCN(C2CCN(C(=O)Nc3cc(Oc4ccc(NC(=O)C5(C(=O)Nc6ccc(F)cc6)CC5)c(F)c4)ccn3)CC2)CC1 [Golvatinib (E7050)]", "relative cell viability", 1.15],
  ["O=C(/C=C/c1ccc(O)cc1)c1ccc(O)cc1O", "relative cell viability", 0.904],
  ["O=C(NC[C@H](O)CN1CCc2ccccc2C1)c1cc(NC2COC2)ncn1", "relative cell viability", 1.09],
  ["COc1ccc(C[C@H](NC(=O)[C@H](C)NC(=O)CN2CCOCC2)C(=O)N[C@@H](Cc2ccccc2)C(=O)[C@@]2(C)CO2)cc1", "relative cell viability", 0.153],
  ["NC(=O)c1cccc2[nH]c(-c3ccc(C4CCCN4)cc3F)nc12 (stereo unspecified)", "relative cell viability", 0.981],
  ["OCc1ccc(O[C@@H]2O[C@H](CO)[C@@H](O)[C@H](O)[C@H]2O)cc1", "relative cell viability", 1.35],
  ["O=C(Nc1c[nH]nc1-c1nc2ccc(CN3CCOCC3)cc2[nH]1)NC1CC1", "relative cell viability", 0.3],
  ["O=C(O)c1cc(I)ccc1NC(=O)[C@H](Cc1ccccc1)NCc1ccccc1", "relative cell viability", 1.03]
]}

----------
Form field: relative cell viability (one value per entry).
Test system: Hep3B
assay.comment: relative cell viability (CellTiter-Glo), compound alone (fraction); higher = more viable cells (less growth inhibition)
condition.info: cabozantinib 0 µM; 4 days
Counter-ions that a name gives are not always drawn. Whole data set: some 1,900 compounds, median “relative cell viability (CellTiter-Glo), compound alone” near 1, cut for the lowest 2% near 0.16. The list comes from a sample in which the lowest values are over-represented; it also holds close analogues and randomly drawn compounds.

{"columns": ["compound", "experimental.target", "relative cell viability"],
 "data": [
  ["C[C@@H](O[C@H]1OCCN(Cc2nn(P(=O)(O)O)c(=O)[nH]2)[C@H]1c1ccc(F)cc1)c1cc(C(F)(F)F)cc(C(F)(F)F)c1 [Fosaprepitant dimeglumine salt]", "Hep3B", 1.04],
  ["O=C1c2cccc(O)c2C(=O)c2c(O)cc(CO)cc21", "Hep3B", 0.96],
  ["CCS(=O)(=O)Nc1ccc2c(c1)/C(=C(/Nc1ccc(CN3CCCCC3)cc1)c1ccccc1)C(=O)N2", "Hep3B", 0.112],
  ["O=C(NCCS(=O)(=O)c1ccc(C(F)(F)F)cn1)c1ccc(Cl)cc1", "Hep3B", 1.2],
  ["O=C(NCc1ccc(Oc2ccccc2)cc1)c1nc(-c2cc(Br)c(O)c(Br)c2)no1", "Hep3B", 1.13],
  ["Cc1ccc(-n2sc(=O)n(Cc3ccc(F)cc3)c2=O)cc1", "Hep3B", 1.03],
  ["Cn1nnc(-c2ccc3c(c2)[nH]c2nc(Cc4ccccc4)nc(NC4CCC(N)CC4)c23)n1 (stereo not drawn)", "Hep3B", 0.194],
  ["CC(C)(C)C[C@@H]1N[C@@H](C(=O)N[C@H]2CC[C@H](O)CC2)[C@H](c2cccc(Cl)c2F)[C@]12C(=O)Nc1cc(Cl)ccc12", "Hep3B", 1.09],
  ["Cc1cc(F)c(Nc2ncnc3cc(OCc4ccccc4)ccc23)cc1O", "Hep3B", 1.17],
  ["CNc1cc(-c2cccc(Cl)c2Cl)nc(N)n1", "Hep3B", 1.1],
  ["C=CC(=O)N1CCC(Oc2cc3c(Nc4ccc(Cl)c(Cl)c4F)ncnc3cc2OC)CC1 [Poziotinib (HM781-36B)]", "Hep3B", 0.933],
  ["COc1cc2ncc(-c3ccccc3)nc2cc1OC", "Hep3B", 1],
  ["CN(C)Cc1cccc(N/C(=C2\\C(=O)Nc3cc(C(N)=O)ccc32)c2ccccc2)c1", "Hep3B", 0.73]
]}

----------
Test system: Hep3B
assay.comment: relative cell viability (CellTiter-Glo), compound alone (fraction); higher = more viable cells (less growth inhibition)
condition.info: cabozantinib 0 µM; 4 days
Where a name gives a salt, the structure may show the parent alone. The full ranking holds about 1,900 compounds; the median of “relative cell viability (CellTiter-Glo), compound alone” is about 1, and the lowest 2% start at about 0.16. For the sample, the lowest values were picked, then their nearest neighbours and some compounds at random.
Rule: relative cell viability below 0.9 gives satisfied, anything at or above gives not satisfied.

{"columns": ["compound", "group.label"],
 "data": [
  ["CC(C)c1ccc(NC(=O)Cn2cnc3c2c(=O)n(C)c(=O)n3C)cc1", "not satisfied"],
  ["O=C(/C=C/c1ccc(CN(CCO)CCc2c[nH]c3ccccc23)cc1)NO", "satisfied"],
  ["O=C(O)C(S)=Cc1c[nH]c2ccc(F)cc12", "not satisfied"],
  ["CC1=CC(=O)c2ccccc2C1=O", "not satisfied"],
  ["CC(C)(C)c1cc(C(=O)C(C#N)=NNc2cccc(Cl)c2)no1", "not satisfied"],
  ["CCN(CC)Cc1ccc2cc(COC(=O)Nc3ccc(C(=O)NO)cc3)ccc2c1", "satisfied"],
  ["Nc1nc(NC2CC2)cc(-c2cccc(Cl)c2Cl)n1", "not satisfied"],
  ["CN(C)Cc1c(C(=O)NCCOc2ccc(C(=O)NO)cc2)oc2ccccc12", "satisfied"],
  ["Cc1ccc([N+](=O)[O-])cc1S(=O)(=O)N(C)/N=C/c1cnc2ccc(Br)cn12", "satisfied"],
  ["CC1CNc2c(cccc2S(=O)(=O)N[C@@H](CCCNC(=N)N)C(=O)N2CC[C@@H](C)C[C@@H]2C(=O)O)C1 (some centres not stated)", "not satisfied"],
  ["COc1cccc2c1C(=O)c1c(O)c3c(c(O)c1C2=O)C[C@@](O)(C(=O)CO)C[C@@H]3O[C@H]1C[C@H](N)[C@@H](O)[C@H](C)O1 [Epirubicin HCl]", "satisfied"],
  ["COc1cccc2c1C(=O)c1c(O)c3c(c(O)c1C2=O)C[C@@](O)(C(=O)CO)C[C@@H]3O[C@H]1C[C@H](N)[C@H](O[C@@H]2CCCCO2)[C@H](C)O1", "satisfied"],
  ["COc1cccc2c1C(=O)c1c(O)c3c(c(O)c1C2=O)C[C@@](O)(C(=O)CO)C[C@@H]3O[C@H]1C[C@H](N)[C@H](O)[C@H](C)O1", "satisfied"],
  ["CC(=O)OCOC(=O)CN(CC(=O)OCOC(C)=O)c1ccccc1OCCOc1ccccc1N(CC(=O)OCOC(C)=O)CC(=O)OCOC(C)=O", "not satisfied"],
  ["NC1=N[C@@](c2cccc(-c3cncnc3)c2)(c2ccnc(C(F)F)c2)c2cccc(F)c21", "not satisfied"]
]}
